The measurements presented in this section are drawn from PubChem BioAssay (NCI).

- Tested on: CCRF-CEM leukemia
- ASSAY_NAME: NCI tumour cell line growth inhibition, 48 h
Reported TGI values for a set of molecules

MOLECULE: OC(COc1cccc2ccccc12)CN1CCN(c2ccc(Cl)cc2)CC1 (stereo unspecified)
MEASUREMENT_TARGET: CCRF-CEM leukemia
TGI: > 100 µM
--
MOLECULE: COc1ccc(N2CCN(CN3CCN(c4ccc(OC)cc4)C3)C2)cc1
MEASUREMENT_TARGET: CCRF-CEM leukemia
TGI: > 100 µM
--
MOLECULE: C=CC(=O)NCCOc1cccc(Nc2cc(NCCCNC(=O)C3CCC3)c(Br)cn2)c1
MEASUREMENT_TARGET: CCRF-CEM leukemia
TGI: > 25 µM
--
MOLECULE: Cc1ccc(C(=O)OC(C)C)cc1N=NN(C)C
MEASUREMENT_TARGET: CCRF-CEM leukemia
TGI: > 100 µM
--
MOLECULE: Cc1cccc(Cl)c1NC(N)=S
MEASUREMENT_TARGET: CCRF-CEM leukemia
TGI: > 100 µM
--
MOLECULE: COC(=O)CCCC(=O)NC1=C(Nc2ccccc2)C(=O)c2ccccc2C1=O
MEASUREMENT_TARGET: CCRF-CEM leukemia
TGI: 76.2 µM
--
MOLECULE: N#CC(c1ccccc1)N(CCc1ccccc1)C(=O)c1ccccc1 (stereo unspecified)
MEASUREMENT_TARGET: CCRF-CEM leukemia
TGI: > 100 µM
--
MOLECULE: C=CCOc1ccc(C2(c3ccc(OCC=C)cc3)C(=O)Nc3ccccc32)cc1
MEASUREMENT_TARGET: CCRF-CEM leukemia
TGI: > 10 µM
--
MOLECULE: NC1=NN(c2ccccc2)C(=O)C1/C(=N\NC(=O)c1cc2ccccc2cc1O)C(=O)Nc1nc([N+](=O)[O-])cs1 (stereo unspecified)
MEASUREMENT_TARGET: CCRF-CEM leukemia
TGI: 59.7 µM
--
MOLECULE: CSC1=C(C#N)C(=O)N(c2ccc(Cl)cc2)C(=O)C1C#N (stereo unspecified)
MEASUREMENT_TARGET: CCRF-CEM leukemia
TGI: > 100 µM
--
MOLECULE: O=C(CCc1ccco1)NC1CCN(CC2(c3ccc(Cl)cc3)CCC2)CC1
MEASUREMENT_TARGET: CCRF-CEM leukemia
TGI: 49.9 µM
--
MOLECULE: COc1cc(CNc2nc3ccccc3n2Cc2ccccc2)cc(CN2CCOCC2)c1O
MEASUREMENT_TARGET: CCRF-CEM leukemia
TGI: > 100 µM
--
MOLECULE: Brc1cccc(Nc2ncnc3sc4c(c23)CCC(Nc2cccc(Br)c2)C4)c1 (stereo unspecified)
MEASUREMENT_TARGET: CCRF-CEM leukemia
TGI: > 100 µM
--
MOLECULE: CCOC(=O)CCC(NC(=O)c1ccc(Nc2cnc3cc(C(F)(F)F)ccc3n2)cc1)C(=O)OCC (stereo unspecified)
MEASUREMENT_TARGET: CCRF-CEM leukemia
TGI: > 100 µM
--
MOLECULE: CN(C)c1ccc(/C=C/c2ccnc3ccc4ccccc4c23)cc1
MEASUREMENT_TARGET: CCRF-CEM leukemia
TGI: > 100 µM
--
MOLECULE: O=C(c1ccccn1)c1nc(-c2ccc(Cl)c(Cl)c2)nc2ccc(Cl)cc12
MEASUREMENT_TARGET: CCRF-CEM leukemia
TGI: > 100 µM
--
MOLECULE: CS(=O)(=O)N1CC(CCl)c2ccc(NCCN)cc21 (stereo unspecified)
MEASUREMENT_TARGET: CCRF-CEM leukemia
TGI: > 100 µM
--
MOLECULE: Cc1cc(Cl)ccc1NC(=O)C(=O)Cc1ccc([N+](=O)[O-])c([N+](=O)[O-])c1CC(=O)C(=O)Nc1ccc(Cl)cc1C
MEASUREMENT_TARGET: CCRF-CEM leukemia
TGI: > 100 µM
--
MOLECULE: COc1ccc2c(c1)C(=O)c1c-2c(OCCN(C)C)nc2cc(OC)ccc12
MEASUREMENT_TARGET: CCRF-CEM leukemia
TGI: 2.85 µM
--
MOLECULE: O=C1c2ccccc2C(=O)c2c(NC(=O)C(Cl)CCl)cccc21 (stereo unspecified)
MEASUREMENT_TARGET: CCRF-CEM leukemia
TGI: 2.38 µM
--
MOLECULE: O=c1oc2ccccc2cc1-c1csc(Nc2cc(Cl)cc(Cl)c2)n1
MEASUREMENT_TARGET: CCRF-CEM leukemia
TGI: > 100 µM
--
MOLECULE: Nc1ccc2ncc(Nc3ccc(F)cc3)nc2c1
MEASUREMENT_TARGET: CCRF-CEM leukemia
TGI: > 100 µM
--
MOLECULE: COc1cc[c]([Sb]([Br])([CH]=C(C)C)([CH]=C(C)C)[CH]=C(C)C)cc1
MEASUREMENT_TARGET: CCRF-CEM leukemia
TGI: > 100 µM
--
MOLECULE: CCOC(=O)/C(=C/c1ccccc1)C(=O)c1ccccc1
MEASUREMENT_TARGET: CCRF-CEM leukemia
TGI: 9.44 µM
--
MOLECULE: Nc1ccc(-c2ccc(Nc3cc(S(=O)(=O)O)c(N)c4c3C(=O)c3ccccc3C4=O)cc2)c(S(=O)(=O)O)c1
MEASUREMENT_TARGET: CCRF-CEM leukemia
TGI: > 100 µM
--
MOLECULE: Nc1c(S(=O)(=O)O)cc(Nc2cccc(S(N)(=O)=O)c2)c2c1C(=O)c1ccccc1C2=O
MEASUREMENT_TARGET: CCRF-CEM leukemia
TGI: > 100 µM
--
MOLECULE: O=C(O)c1c([N+](=O)[O-])cc(C(F)(F)F)cc1[N+](=O)[O-]
MEASUREMENT_TARGET: CCRF-CEM leukemia
TGI: > 100 µM
--
MOLECULE: O=C1c2ccc3c4c(ccc(c24)C(=O)N1CCCNCc1ccccc1)C(=O)N(CCCNCc1ccccc1)C3=O
MEASUREMENT_TARGET: CCRF-CEM leukemia
TGI: 4.73 µM
--
MOLECULE: Cc1ccc(/C=N/Nc2cc(C)c3ccccc3n2)s1
MEASUREMENT_TARGET: CCRF-CEM leukemia
TGI: > 100 µM
--
MOLECULE: O=C1CCc2nc3ncccc3cc2C1
MEASUREMENT_TARGET: CCRF-CEM leukemia
TGI: 72.8 µM
--
MOLECULE: CCCCNC(=O)OCC(COc1ccccc1OC)OC(=O)NCCCC (stereo unspecified)
MEASUREMENT_TARGET: CCRF-CEM leukemia
TGI: > 100 µM
--
MOLECULE: CC(C)Oc1c(C2(c3ccccc3O)SCCCS2)c(=O)c1=O
MEASUREMENT_TARGET: CCRF-CEM leukemia
TGI: 61.6 µM
--
MOLECULE: CN/C=C(/c1ccc(OC)cc1)C(O)c1ccc(OC)c(OC)c1 (stereo unspecified)
MEASUREMENT_TARGET: CCRF-CEM leukemia
TGI: > 100 µM
--
MOLECULE: CCCCCCCC/C=C\CCCCCCCC(=O)OC[C@]1(CO)CCC(=O)O1
MEASUREMENT_TARGET: CCRF-CEM leukemia
TGI: > 100 µM
--
MOLECULE: CC(NC1=NCCO1)c1cccs1 (stereo unspecified)
MEASUREMENT_TARGET: CCRF-CEM leukemia
TGI: 78.5 µM
--
MOLECULE: Cc1cc(O)c(C2=NN(c3ccc(S(N)(=O)=O)cc3)C(c3ccccc3O)C2)cc1Cl (stereo unspecified)
MEASUREMENT_TARGET: CCRF-CEM leukemia
TGI: > 24.7 µM
